target_of_assay: Placenta growth factor (Homo sapiens, UniProt P49763)
Sequence (P49763 whole entry): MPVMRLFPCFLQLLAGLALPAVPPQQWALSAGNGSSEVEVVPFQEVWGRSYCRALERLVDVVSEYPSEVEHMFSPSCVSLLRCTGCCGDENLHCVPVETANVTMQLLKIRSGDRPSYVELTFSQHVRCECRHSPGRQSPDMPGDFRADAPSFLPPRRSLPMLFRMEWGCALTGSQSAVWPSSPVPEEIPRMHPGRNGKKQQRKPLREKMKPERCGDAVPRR
experiment_description: Inhibition of human PlGF-1-VEGFR-1 interaction by ELISA
Bridge positions count the residues as written; N and C are the ends. Peptide text beside a SMILES is read from it. * marks the point of attachment. X1 = O=C(COCC(=O)*)Nc1ccc(CCC(=O)N2CCC2=O)cc1
observation_type: pIC50
# reply with the number alone; pIC50 is -log10 of concentration in mol/L

With Placenta growth factor (Homo sapiens, UniProt P49763) as the test system, CC[C@H](C)[C@H](NC(=O)[C@H](CC(=O)O)NC(=O)[C@H](Cc1ccc(O)cc1)NC(C)=O)C(=O)N[C@H]1CSSC[C@@H](C(=O)N[C@@H](Cc2ccccc2)C(=O)N[C@@H](C)C(=O)N[C@H](C(N)=O)C(C)C)NC(=O)[C@H](Cc2cnc[nH]2)NC(=O)[C@@H]2CCCN2C(=O)[C@H](CC(C)C)NC(=O)[C@H](CCCNC(=N)N)NC(=O)[C@H]([C@@H](C)CC)NC(=O)[C@H](Cc2ccc(O)cc2)NC(=O)[C@H](Cc2cnc[nH]2)NC1=O (Ac-YDICHYIRLPHCFAV-NH2; disulfide 4-12) showed pIC50 of 4.00

With Placenta growth factor (Homo sapiens, UniProt P49763) as the test system, CSCC[C@H](NC(=O)[C@@H](NC(=O)[C@H](CCCCN)NC(=O)[C@@H]1CSSC[C@H](NC(=O)[C@@H](NC(=O)[C@H](CC(=O)O)NC(=O)[C@H](Cc2ccccc2)NC(C)=O)C(C)C)C(=O)N[C@@H](CCCCN)C(=O)N[C@@H](Cc2c[nH]c3ccccc23)C(=O)N[C@@H](C(C)C)C(=O)N[C@@H]([C@@H](C)O)C(=O)N[C@@H](CC(C)C)C(=O)N2CCC[C@H]2C(=O)N[C@@H](Cc2cnc[nH]2)C(=O)N1)C(C)C)C(N)=O (Ac-FDVCKWVTLPHCKVM-NH2; disulfide 4-12) showed pIC50 of 6.00

With Placenta growth factor (Homo sapiens, UniProt P49763) as the test system, CSCC[C@H](NC(=O)[C@@H](NC(=O)[C@H](CCCNC(=N)N)NC(=O)[C@@H]1CSSC[C@H](NC(=O)[C@@H](NC(=O)[C@H](CC(=O)O)NC(=O)[C@H](Cc2ccccc2)NC(C)=O)C(C)C)C(=O)N[C@@H](CCCCN)C(=O)N[C@@H](Cc2c[nH]c3ccccc23)C(=O)N[C@@H](C(C)C)C(=O)N[C@@H]([C@@H](C)O)C(=O)N[C@@H](CC(C)C)C(=O)N2CCC[C@H]2C(=O)N[C@@H](Cc2cnc[nH]2)C(=O)N1)C(C)C)C(N)=O (Ac-FDVCKWVTLPHCRVM-NH2; disulfide 4-12) showed pIC50 of 5.30

With Placenta growth factor (Homo sapiens, UniProt P49763) as the test system, CSCC[C@H](NC(=O)[C@@H](NC(=O)[C@H](CCCCN)NC(=O)[C@@H]1CSSC[C@H](NC(=O)[C@@H](NC(=O)[C@H](CC(=O)O)NC(=O)[C@H](Cc2ccccc2)NC(=O)COCC(=O)Nc2ccc(CCC(=O)N3CCC3=O)cc2)C(C)C)C(=O)N[C@@H](CCCCN)C(=O)N[C@@H](Cc2c[nH]c3ccccc23)C(=O)N[C@@H](C(C)C)C(=O)N[C@@H]([C@@H](C)O)C(=O)N[C@@H](CC(C)C)C(=O)N2CCC[C@H]2C(=O)N[C@@H](Cc2cnc[nH]2)C(=O)N1)C(C)C)C(N)=O (X1-FDVCKWVTLPHCKVM-NH2; disulfide 4-12) showed pIC50 of 6.00

With Placenta growth factor (Homo sapiens, UniProt P49763) as the test system, CC[C@H](C)[C@H](NC(=O)[C@H](CC(=O)O)NC(=O)[C@H](Cc1ccc(O)cc1)NC(C)=O)C(=O)N[C@H]1CSSC[C@@H](C(=O)N[C@@H](CCCN=C(N)N)C(=O)N[C@@H](C)C(=O)N[C@H](C(N)=O)C(C)C)NC(=O)[C@H](Cc2cnc[nH]2)NC(=O)[C@@H]2CCCN2C(=O)[C@H](CC(C)C)NC(=O)[C@H](CCCNC(=N)N)NC(=O)[C@H]([C@@H](C)CC)NC(=O)[C@H](Cc2ccc(O)cc2)NC(=O)[C@H](CCCCN)NC1=O (Ac-YDICKYIRLPHCRAV-NH2; disulfide 4-12) showed pIC50 of 5.05
